# assayedTarget: human P2X3 receptor (Homo sapiens (Human), UniProt P56373)
# Sequence (P56373 whole entry): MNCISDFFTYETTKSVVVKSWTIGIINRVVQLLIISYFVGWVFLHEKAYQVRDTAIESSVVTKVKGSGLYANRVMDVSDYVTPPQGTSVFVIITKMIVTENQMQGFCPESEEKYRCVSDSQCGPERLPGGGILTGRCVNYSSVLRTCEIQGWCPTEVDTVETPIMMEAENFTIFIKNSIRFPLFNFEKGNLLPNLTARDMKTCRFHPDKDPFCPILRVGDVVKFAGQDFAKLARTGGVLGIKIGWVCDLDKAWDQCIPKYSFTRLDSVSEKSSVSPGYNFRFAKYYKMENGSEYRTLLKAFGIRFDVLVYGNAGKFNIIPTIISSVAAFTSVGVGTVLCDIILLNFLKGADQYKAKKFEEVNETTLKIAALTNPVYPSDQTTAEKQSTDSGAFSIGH
# assayDetails: Evaluation of human P2X3 receptor inhibitory activity (Fluo-3 calcium fluorescence, FDSS 3000, ATP stimulation)
# Format: cell-based
# statedConditions: C6BU-1 cells stably expressing human P2X3 receptor, Fluo-3 fluorescence, FDSS 3000
property: IC50 (µM)
// units = µM; emit number, no label

Examples from the recorded data:
CC(C)Oc1ccc(/N=c2\[nH]c(=O)n(CC(CO)(CO)C(=O)O)c(=O)n2Cc2ccc(Cl)cc2)cc1Cl :: 0.051
COC(=O)[C@@H](C)Cn1c(=O)[nH]/c(=N\c2cccc(SC)c2)n(Cc2ccc(Cl)cc2)c1=O :: 0.046
CC(C)n1cnc2cc(/N=c3\[nH]c(=O)n([C@@H](C)[C@@H](C)C(=O)O)c(=O)n3Cc3ccc(Cl)cc3)ccc21 :: 0.297

In the following, a different molecule is considered.
The value of IC50 measured for the molecule C[C@@H](Oc1ccc(/N=c2\[nH]c(=O)n(CCCO)c(=O)n2Cc2ccc(Cl)cc2)cc1)C(F)(F)F turned out to be 0.014

###

# assayedTarget: UniProt:P56373
# assayDetails: Evaluation of human P2X3 receptor inhibitory activity (Fluo-3 calcium fluorescence, FDSS 3000, ATP stimulation)
# Format: cell-based
# statedConditions: C6BU-1 cells stably expressing human P2X3 receptor
pIC50: −log10 of the molar value.
Each entry gets no if its pIC50 stays under 8, and yes if its pIC50 is 8 or above.

The examples below pair each entry with its known result.
COC(=O)[C@@H](C)Cn1c(=O)[nH]/c(=N\c2ccc(OCC(F)F)c(C)c2)n(Cc2ccc(Cl)cc2)c1=O :: no
CCn1c(=O)[nH]/c(=N\c2ccc(OCc3nnc(C)o3)cc2)n(Cc2ccc(Cl)cc2)c1=O :: no
Cc1cc(Oc2ccc(/N=c3\[nH]c(=O)n(CC(=O)NCCO)c(=O)n3Cc3ccc(Cl)cc3)cc2)ccn1 :: yes
COC(=O)[C@@H](C)Cn1c(=O)[nH]/c(=N\c2ccc(OC3CCC3)cc2)n(Cc2ccc(C)cc2)c1=O :: yes

Attention now shifts to the item below.
Task item: Can COC(=O)[C@@H](C)[C@@H](C)n1c(=O)[nH]/c(=N\c2ccc(OC(C)C)cc2)n(Cc2ccc(C)cc2)c1=O be said to have pIC50 at or above 8?
Reply: no

###

# assayedTarget: human P2X3 receptor (Homo sapiens (Human), UniProt P56373)
# assayDetails: Evaluation of human P2X3 receptor inhibitory activity (Fluo-3 calcium fluorescence, FDSS 3000, ATP stimulation);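 also: stimulus was 50 nM ATP with fluorescence followed for 3 min, and the response per well was peak post-ATP fluorescence divided by the reading at measurement start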
# Assay type: cell-based
# statedConditions: C6BU-1 cells stably expressing human P2X3 receptor
pIC50: −log10 of the molar value.
Please enter yes (1) where pIC50 is greater than or equal to 8, and no (0) where it is lower.

CCOC(=O)CCCn1c(=O)[nH]/c(=N\c2ccc(Oc3ccnc(C)c3)cc2)n(Cc2ccc(C)cc2)c1=O [Compound I-1397] :: yes (1)
COC(=O)[C@@H](C)Cn1c(=O)[nH]/c(=N\c2ccc(OC3CCCCC3)cc2)n(Cc2ccc(C)cc2)c1=O [Compound I-1219] :: no (0)
CC(C)Oc1ccc(/N=c2\[nH]c(=O)n(CC(=O)NC3CCOCC3)c(=O)n2Cc2ccc(Cl)cc2)cc1Cl [Compound I-0663] :: yes (1)
COC(=O)[C@@H](C)[C@@H](C)n1c(=O)[nH]/c(=N\c2ccc(OC(C)C)c(C)c2)n(Cc2ccc(C)cc2)c1=O [Compound I-1312] :: no (0)
CCn1c(=O)[nH]/c(=N\c2ccc(Oc3cccc(NC(C)=O)c3)cc2)n(Cc2ccc(Cl)cc2)c1=O [Compound I-2139] :: no (0)
COC(=O)Cn1cccc(Cn2c(=O)[nH]/c(=N\c3ccc(OC(C)C)c(C)c3)n(Cc3ccc(Cl)cc3)c2=O)c1=O [Compound I-0757] :: no (0)
CNC(=O)CCn1c(=O)[nH]/c(=N\c2ccc(OC(C)C)c(Cl)c2)n(CC2CCC(C)CC2)c1=O (stereo not drawn) [Compound I-2019] :: yes (1)
CCCc1ccc(/N=c2\[nH]c(=O)n(C[C@H](C)C(=O)O)c(=O)n2Cc2ccc(Cl)cc2)cc1 [Compound I-0627] :: no (0)

Task item: Confirm if pIC50 reported for the compound CCCc1ccc(/N=c2\[nH]c(=O)n(C[C@H](C)C(=O)O)c(=O)n2Cc2ccc(Cl)cc2)cc1OC [Compound I-1354] is 8 or above.
Reply: no (0)
